Kindly supply the reported concentration at 0.5 h values for the records listed here.
- Assay Text: in vitro
- Details: human, whole blood; level measured in red blood cells
- Description: Compound level in Red Blood Cells at 30 min, after exposure of 10 mL of Blood to compound solution by electronic spectroscopic method
Give bare numbers, in µM.

Worked cases, answers included:
[
  {
    "Compound": "Cc1cc(C)[n+](Cc2ccc(S(N)(=O)=O)cc2)cc1C.[O-][Cl+3]([O-])([O-])[O-]",
    "Value Unit": "µM",
    "Reported Result": 0.5
  },
  {
    "Compound": "NCCc1ccc(S(N)(=O)=O)cc1",
    "Value Unit": "µM",
    "Reported Result": 138
  }
]

Continue with the compound presented below.
Measured concentration at 0.5 h, CC(=O)/N=c1/sc(S(N)(=O)=O)nn1C [METHAZOLAMIDE] : 169

Taken from ChEMBL document CHEMBL1140330.
